# TGT: HLA-A*24:03
# RUN DESCRIPTION: IEDB peptide-MHC binding, purified MHC/direct/fluorescence; filed as Kd, often an IC50 or EC50 that approximates it; bounds were set here for any values at or beyond the usual limits of such assays
# TEST CONDITIONS: source organism: Cryptosporidium parvum
READOUT LABEL: Kd (µM)

In [3]: df
Out[3]:
   sequence_string  readout_label  observed_measurement
0        WLPWIPQLI             Kd                  3.44

* * *

# TGT: HLA-A*24:02
# RUN DESCRIPTION: IEDB peptide-MHC binding, purified MHC/direct/fluorescence; filed as Kd, often an IC50 or EC50 that approximates it; bounds were set here for any values at or beyond the usual limits of such assays
# TEST CONDITIONS: source organism: Influenza A virus (A/equine/New York/1/1999(H3N8))
pKd: −log10 of the molar value.
READOUT LABEL: pKd

In [3]: df
Out[3]:
   sequence_string          tgt  readout_label  observed_measurement
0        VAGGTSSVY  HLA-A*24:02            pKd                ≤ 4.70
